src = patent US12440492B2

experiment: Solid state by X-ray powder diffraction; type: physicochemical; details: * indicates absence of crystalline API; monohydrochloride
Structures can show the parent of a compound that is named as a salt.
quantity: Solid state / Polymorphy (X-Ray, XRPD)

CC(C)NC[C@@H](C(=O)N1CCN(c2ncnc3c2[C@H](C)C[C@H]3O)CC1)c1ccc(Cl)cc1 [Composition 140910418, ipatasertib monohydrochloride]: amorph.*
CC(C)NC[C@@H](C(=O)N1CCN(c2ncnc3c2[C@H](C)C[C@H]3O)CC1)c1ccc(Cl)cc1 [Composition 140910415, ipatasertib monohydrochloride]: amorph.*

====

experiment: Bulk density, tapped density and Carr index; assay type: physicochemical; settings: spray dried amorphous ipatasertib monohydrochloride powder; monohydrochloride
Counter-ions that a name gives are not always drawn.
quantity: Tapped density (gcm^−3)

CC(C)NC[C@@H](C(=O)N1CCN(c2ncnc3c2[C@H](C)C[C@H]3O)CC1)c1ccc(Cl)cc1 [Composition 130710451, ipatasertib monohydrochloride]: 0.61
CC(C)NC[C@@H](C(=O)N1CCN(c2ncnc3c2[C@H](C)C[C@H]3O)CC1)c1ccc(Cl)cc1 [Composition 141210421, ipatasertib monohydrochloride]: 0.55
CC(C)NC[C@@H](C(=O)N1CCN(c2ncnc3c2[C@H](C)C[C@H]3O)CC1)c1ccc(Cl)cc1 [Composition 140110406, ipatasertib monohydrochloride]: 0.54
